system: biosimilar AVASTIN®; assay: Viscosity of aqueous solutions of biosimilar AVASTIN® with viscosity-lowering agents; assay type: physicochemical; conditions: 200 ± 5 mg/mL mAb, pH 7.0, 25° C.; [Salt] 0.25 M of anion; C & P viscometer
Where a name gives a salt, the structure may show the parent alone.
Listing of recorded Viscosity by entry.
Numbers only; they are read as cP.

Reference set (5 entries):
**Query** Query the reported Viscosity for biosimilar AVASTIN®; item: CC1(C)C2CCC1(CS(=O)(=O)O)C(=O)C2.N=C(N)NOCC[C@H](N)C(=O)O (centres unmarked)
**Result** 75.6

**Query** Query the reported Viscosity for biosimilar AVASTIN®; item: CS(=O)(=O)O.N=C(N)NCCC[C@H](N)C(=O)O
**Result** 93.1

**Query** Query the reported Viscosity for biosimilar AVASTIN®; item: Cl.N=C(N)NCCC[C@H](N)C(=O)O [Arginine•HCl, arginine HCl, reference compound]
**Result** 83.2

**Query** Query the reported Viscosity for biosimilar AVASTIN®; item: CC1(C)C2CCC1(CS(=O)(=O)O)C(=O)C2 (centres unmarked) [CSA sodium salt, Camphorsulfonic acid]
**Result** 55.7

**Query** Query the reported Viscosity for biosimilar AVASTIN®; item: [Cl-].[Na+] [NaCl, reference compound]
**Result** 121

***
**Query** Query the reported Viscosity for biosimilar AVASTIN®; item: N=C(N)NCCC[C@H](N)C(=O)O.O=S(=O)(O)c1ccccc1
**Result** 75.3

**Query** Query the reported Viscosity for biosimilar AVASTIN®; item: NCCCC[C@H](N)C(=O)O [Lysine•HCl, reference compound]
**Result** 137

**Query** Query the reported Viscosity for biosimilar AVASTIN®; item: N=C(N)NCCC[C@H](N)C(=O)O.O=C(O)c1ccccc1
**Result** 51.4

---

system: biosimilar ERBITUX®; assay: Viscosity of aqueous solutions of biosimilar ERBITUX® with viscosity-lowering agents; conditions: vs phosphate buffer; 222 ± 5 mg/mL mAb, pH 7.0; 0.25M agent; 25° C.
Structures can show the parent of a compound that is named as a salt.
Listing of recorded Fold Reduction by entry.
Numbers only; they are read as fold.

Reference set (2 entries):
**Query** Returns the measured Fold Reduction for the input compound. Input: NCCCC[C@H](N)C(=O)O [Lysine•HCl, reference compound]
**Result** 8.8

**Query** Returns the measured Fold Reduction for the input compound. Input: Cl.N=C(N)NCCC[C@H](N)C(=O)O [Arginine•HCl, arginine HCl, reference compound]
**Result** 24.9

***
**Query** Returns the measured Fold Reduction for the input compound. Input: CC1(C)C2CCC1(CS(=O)(=O)O)C(=O)C2 (stereo not shown) [CSA sodium salt, Camphorsulfonic acid]
**Result** 2.9

---

system: biosimilar ERBITUX®; assay: Viscosity of aqueous solutions of biosimilar ERBITUX® with viscosity-lowering agents; conditions: 222 ± 5 mg/mL mAb, pH 7.0; 0.25M agent; 25° C.
Where a name gives a salt, the structure may show the parent alone.
Readout label: Viscosity (cP)
Numbers only; they are read as cP.

Reference set (4 entries):
**Query** Query the reported Viscosity for biosimilar ERBITUX®; item: NCCCC[C@H](N)C(=O)O.O=S(=O)(O)c1ccccc1
**Result** 126

**Query** Query the reported Viscosity for biosimilar ERBITUX®; item: N=C(N)NCCC[C@H](N)C(=O)O.O=S(=O)(O)c1ccccc1
**Result** 53.4

**Query** Query the reported Viscosity for biosimilar ERBITUX®; item: Cl.N=C(N)NCCC[C@H](N)C(=O)O [Arginine•HCl, arginine HCl, reference compound]
**Result** 45.3

**Query** Query the reported Viscosity for biosimilar ERBITUX®; item: CC1(C)C2CCC1(CS(=O)(=O)O)C(=O)C2 (centres unmarked) [CSA sodium salt, Camphorsulfonic acid]
**Result** 393

Here's the next entry for you.
**Query** Query the reported Viscosity for biosimilar ERBITUX®; item: NCCCC[C@H](N)C(=O)O [Lysine•HCl, reference compound]
**Result** 128
